Test: Pharmacokinetic study in rats, IV and oral gavage, with brain penetration
Format: in vivo, rat
Conditions: male, Sprague Dawley, brain; rat, time not stated; read-out: Brain/Plasma ratio

structure-smiles-string	Kp
COc1ccc(OC(=O)NC2CCCCCC2)cc1-c1cncc(-c2nnco2)c1	> 0.15

* * *

Assay: Pharmacokinetic study in rats, IV and oral gavage, with brain penetration
Format: in vivo, rat
Details: male, Sprague Dawley, brain; rat, 1 h; read-out: Brain/Plasma ratio (1 h)
# Kp at 1 h per entry

structure-smiles-string	Kp at 1 h
O=C(NC1CCCCC1)Oc1ccc(O)c(-c2cncc(-c3nnco3)c2)c1	0.02
COc1ccc(OC(=O)NC2CCCCCC2)cc1-c1cncc(-c2nnco2)c1	0.19

* * *

Target: human recombinant MAGL (Homo sapiens (Human), UniProt Q99685)
Sequence (Q99685 whole entry): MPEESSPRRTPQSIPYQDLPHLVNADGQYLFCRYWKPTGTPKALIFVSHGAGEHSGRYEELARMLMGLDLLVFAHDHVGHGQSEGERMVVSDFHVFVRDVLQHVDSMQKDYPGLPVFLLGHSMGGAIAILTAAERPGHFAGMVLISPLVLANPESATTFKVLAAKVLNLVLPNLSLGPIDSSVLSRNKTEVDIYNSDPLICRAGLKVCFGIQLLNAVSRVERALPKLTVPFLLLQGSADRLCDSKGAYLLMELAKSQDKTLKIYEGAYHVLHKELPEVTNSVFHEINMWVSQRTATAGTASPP
Assay: In vitro inhibition of MAGL activity (inhibitor screening kit, 4-nitrophenylacetate)
Conditions: human recombinant MAGL

structure-smiles-string	IC50
O=C(NC1CC2(CCC2)C1)Oc1cccc(-c2cncc(-c3nnco3)c2)c1	> 10 µM
COc1ccc(OC(=O)NCc2ccccc2)cc1-c1cncc(-c2nccs2)c1	> 10 µM
CCCCCCCCNC(=O)Oc1cccc(-c2cncc(-c3ccc[nH]3)c2)c1	> 10 µM
COc1ccc(OC(=O)NCC2CCCCC2)cc1-c1cncc(-c2ncn[nH]2)c1	~10 µM
COc1ccc(OC(=O)NC2CCCCCC2)cc1-c1cncc(-c2ccco2)c1	> 10 µM
COc1ccc(OC(=O)NC2CCCCC2)cc1-c1cncc(-c2cccs2)c1	> 10 µM
O=C(NC1CCCCCC1)Oc1ccc(O)c(-c2cncc(-c3nnn[nH]3)c2)c1	> 10 µM
O=C(NC1CCCCCC1)Oc1cccc(-c2cncc(-c3ncn[nH]3)c2)c1	~10 µM
O=C(NCC1CCCCC1)Oc1cccc(-c2cncc(-c3cccs3)c2)c1	> 10 µM

* * *

# half-life at 1 μM per entry
Assay: Plasma stability (LC-MS/MS, % parent compound remaining, half-life)
Format: in vitro ADME
Conditions: human plasma, 1 μM, 37° C., 0-240 mins; read-out: Human Plasma Stability (t1/2, min)
Procedure: Exemplary compounds described herewith were assayed for plasma stability (various species). Plasma was removed from deep freezer and allowed to thaw at room temperature (or at 37° C. if needed). […] Take out the pre-warmed plasma tubes from the 37° C. incubator. […] Finish the sample tubes orderly and quickly, then transfer them to the Thermomixer (program & 37° C. ready), and start the Thermomixer. […]

molecule	half-life at 1 μM / min
O=C(NC1CCCCCC1)Oc1ccc(O)c(-c2cncc(-c3ncn[nH]3)c2)c1 [Example 231]	634
CSc1ccc(OC(=O)NC2CCCCCC2)cc1-c1cncc(-c2nnco2)c1 [Example 191]	31
O=C(NC1CCCCCC1)Oc1ccc(OC(F)(F)F)c(-c2cncc(-c3ncco3)c2)c1 [Example 91]	14
O=C(NC1CCCCC1)Oc1ccc(O)c(-c2cncc(-c3nnco3)c2)c1 [Example 158]	350
O=C(NC1CCCCCC1)Oc1cccc(-c2cncc(-c3ncn[nH]3)c2)c1 [Example 225]	47
O=C(NC1CCCCCC1)Oc1cc(F)cc(-c2cncc(-c3nnco3)c2)c1 [Example 198]	4.7
O=C(NC1CCCCCC1)Oc1cc(O)cc(-c2cncc(-c3nnco3)c2)c1 [Example 165]	28
COc1cc(OC(=O)NC2CCCCCC2)cc(-c2cncc(-c3nnco3)c2)c1 [Example 179]	18
O=C(NC1CCCCCC1)Oc1cccc(-c2cncc(-c3cccs3)c2)c1 [Example 64]	24
O=C(NC1CCCCC1)Oc1cccc(-c2cncc(-c3nnco3)n2)c1 [Example 267]	12
O=C(NC1CCCCCC1)Oc1ccc(F)c(-c2cncc(-c3nnco3)c2)c1 [Example 194]	41
O=C(Oc1cccc(-c2cncc(-c3nnco3)c2)c1)N1CC2(CCC2)C1 [Example 146]	186
O=C(NC1CCCCC1)Oc1cccc(-c2cncc(-c3ccco3)c2)c1 [Example 51]	8
NC(=O)c1cccc(-c2cccc(OC(=O)NC3CCCCC3)c2)c1 [URB597, reference compound]	47
COc1ccc(OC(=O)NC2CCCCCC2)cc1-c1cncc(-c2ncco2)c1 [Example 83]	194
COc1ccc(OC(=O)NC2CCCCCC2)cc1-c1cncc(-c2nnco2)c1 [Example 172]	361
O=C(NC1CCCCCC1)Oc1ccc(F)c(-c2cncc(-c3ncco3)c2)c1 [Example 87]	7

Recorded values, source patent US20250129027A1.
